Quick list: cell viability per entry.
tested on: BV-173; experiment: cell viability (% survival relative to DMSO control, bortezomib = 0%); higher = less cytotoxic; details: 10 nM; 72 h
VALUE_KIND: cell viability (%)

• O=P(O)(O)C(O)(Cn1ccnc1)P(=O)(O)O = 109
• O=C(O)CCc1ccc(NCc2cccc(Oc3ccccc3)c2)cc1 = 112
• C[C@]12O[C@H](C[C@]1(O)CO)n1c3ccccc3c3c4c(c5c6ccccc6n2c5c31)CNC4=O = 65.2
• C[C@H]1O[C@@H](O[C@H]2[C@@H](O)C[C@H](O[C@H]3[C@@H](O)C[C@H](O[C@H]4CC[C@@]5(C)[C@H](CC[C@@H]6[C@@H]5C[C@@H](O)[C@]5(C)[C@@H](C7=CC(=O)OC7)CC[C@]65O)C4)O[C@@H]3C)O[C@@H]2C)C[C@H](O)[C@@H]1O = 106

###

Reported values of cell viability for individual entries
test system: MOLM-13; assay: cell viability (% survival relative to DMSO control, bortezomib = 0%); higher = less cytotoxic; settings: 1000 nM; 72 h
VALUE_KIND: cell viability (%)

• O=C(O)CCc1ccc(NCc2cccc(Oc3ccccc3)c2)cc1 [GW9508] = 89.6
• c1ccc2c(c1)OCC(=C1NCCN1)O2 [Idazoxan] = 89.5
• C#Cc1cnc(O)nc1O [Eniluracil] = 91.4
• CN(C/C=C/C#CC(C)(C)C)Cc1cccc2ccccc12 [Terbinafine] = 90.2

###

tested on: SHI-1; test: cell viability (% survival relative to DMSO control, bortezomib = 0%); higher = less cytotoxic; conditions: 1000 nM; 72 h
VALUE_KIND: cell viability

* C=CCc1ccc2c(c1O)C(=O)c1ccccc1C2=O [R162] | 118%
* C[C@]12CC[C@H](O)CC1=CC[C@@H]1[C@@H]2CC[C@]2(C)C(c3cccnc3)=CC[C@@H]12 [Abiraterone] | 108%
* O=C(O)C(Cl)Cl [Dichloroacetate] | 101%
* N[C@](CCCCB(O)O)(CCN1CCCCC1)C(=O)O [Arginase inhibitor 1] | 110%

###

Some compounds, each annotated with its measured cell viability.
tested on: MV4-11; assay: cell viability (% survival relative to DMSO control, bortezomib = 0%); higher = less cytotoxic; conditions: 10000 nM; 72 h
VALUE_KIND: cell viability (%)

- NC(=O)c1ncn([C@@H]2O[C@H](CO)[C@@H](O)[C@H]2O)n1: 81.8
- Sc1ncnc2nc[nH]c12: 24.7
- Cc1ccc(S(=O)(=O)NC2c3ccccc3Oc3ccccc32)cc1: 93.3
- Nc1ccn([C@@H]2O[C@H](CO)[C@@H](O)[C@@H]2O)c(=O)n1: 0.163
- CC(Cc1ccc(O)c(O)c1)C(C)Cc1ccc(O)c(O)c1 (stereo not drawn): 9.84
- N[C@](CCCCB(O)O)(CCN1CCCCC1)C(=O)O: 84.9
- CC12CCC(O)CC1CCC1C2CCC2(C)C(C3=CC(=O)OC3)CCC12O (stereo not drawn): -1.41
- CCOC(=O)[C@@]1(CCCCCCOc2ccc(Cl)cc2)CO1: 79.3

###

test system: HL-60; experiment: cell viability (% survival relative to DMSO control); higher = less cytotoxic; details: 10 µM; 72 h; co-treatment: pictilisib 100 nM
VALUE_KIND: cell viability (%)

• O=C(O)C(Cl)Cl [Dichloroacetate] = 97
• Cc1ccc(S(=O)(=O)NC2c3ccccc3Oc3ccccc32)cc1 [AH-7614] = 96.4
• Cc1noc2c1-c1ccccc1C(c1ccc(Cl)cc1)=N[C@H]2CC(N)=O [CPI-0610] = 8.68
• [N-]=[N+]=CC(=O)CC[C@H](N)C(=O)O [6-Diazo-5-oxo-L-norleucine] = 87.8
• COc1c(C)c2c(c(O)c1C/C=C(\C)CCC(=O)O)C(=O)OC2 [Mycophenolic acid] = 55.7
• O=C(c1ccc(OCCN2CCCCC2)cc1)c1c(-c2ccc(O)cc2)sc2cc(O)ccc12 [Raloxifene] = 113

###

Form field: cell viability (one value per entry).
tested on: KCL-22; assay: cell viability (% survival relative to DMSO control, bortezomib = 0%); higher = less cytotoxic; settings: 10000 nM; 72 h
VALUE_KIND: cell viability (%)

- Cc1coc2c1C(=O)C(=O)c1c-2ccc2c(C)cccc12 [Tanshinone I]: 59.5
- C[C@]12CC[C@H](O)CC1=CC[C@@H]1[C@@H]2CC[C@]2(C)C(c3cccnc3)=CC[C@@H]12 [Abiraterone]: 87.2
- O=C(O)CCc1ccc(NCc2cccc(Oc3ccccc3)c2)cc1 [GW9508]: 93.4
- C[C@H]1O[C@@H](O[C@H]2[C@@H](O)C[C@H](O[C@H]3[C@@H](O)C[C@H](O[C@H]4CC[C@@]5(C)[C@H](CC[C@@H]6[C@@H]5C[C@@H](O)[C@]5(C)[C@@H](C7=CC(=O)OC7)CC[C@]65O)C4)O[C@@H]3C)O[C@@H]2C)C[C@H](O)[C@@H]1O [Digoxin]: 0.361
- C[C@]12O[C@H](C[C@]1(O)CO)n1c3ccccc3c3c4c(c5c6ccccc6n2c5c31)CNC4=O [Lestaurtinib]: 1.08
- CCOC(=O)[C@H]1O[C@@H]1C(=O)N[C@@H](CC(C)C)C(=O)NCCC(C)C [Aloxistatin]: 87.3
- CN(C)c1nc(O)c2[nH]cnc2n1 [2-Dimethylamino-6-hydroxypurine]: 87.1
- COc1cc2c(NC3CCN(C)CC3)nc(N3CCCN(C)CC3)nc2cc1OCCCN(C)C [UNC0224]: 90.7

###

tested on: HEL; test: cell viability (% survival relative to DMSO control, bortezomib = 0%); higher = less cytotoxic; conditions: 1 nM; 72 h
Each entry below carries its recorded cell viability.
VALUE_KIND: cell viability (%)

- Nc1ccn([C@@H]2O[C@H](CO)[C@@H](O)[C@@H]2O)c(=O)n1: 104
- O=C(O)CCc1ccc(NCc2cccc(Oc3ccccc3)c2)cc1: 112
- CCOC(=O)[C@@]1(CCCCCCOc2ccc(Cl)cc2)CO1: 105
- C#Cc1cnc(O)nc1O: 100
- O=C1Oc2ccccc2C(=O)C1CC1C(=O)Oc2ccccc2C1=O (stereo unspecified): 109
- O=C(COc1ccc(C(=O)c2ccccc2)cc1)NC1CCN(Cc2ccccc2)CC1: 94.5

###

system: HL-60; assay: cell viability (% survival relative to DMSO control); higher = less cytotoxic; conditions: 0.001 µM; 72 h; co-treatment: DMSO vehicle
VALUE_KIND: cell viability

- O=C1Nc2ccccc2/C1=C\NCCc1ccc(O)c(O)c1 [AC1NZZMF]: 103%
- O=C(O)CCc1ccc(NCc2cccc(Oc3ccccc3)c2)cc1 [GW9508]: 95.5%
- COc1c(C)c2c(c(O)c1C/C=C(\C)CCC(=O)O)C(=O)OC2 [Mycophenolic acid]: 72.1%
- O=C(O)C(Cl)Cl [Dichloroacetate]: 96.5%
- Cc1noc2c1-c1ccccc1C(c1ccc(Cl)cc1)=N[C@H]2CC(N)=O [CPI-0610]: 96.3%

###

molecules and their reported cell viability
test system: LAMA-84; experiment: cell viability (% survival relative to DMSO control, bortezomib = 0%); higher = less cytotoxic; conditions: 1 nM; 72 h
VALUE_KIND: cell viability (%)

* Nc1ccn([C@@H]2O[C@H](CO)[C@@H](O)[C@@H]2O)c(=O)n1 | 93
* NC(=O)c1ncn([C@@H]2O[C@H](CO)[C@@H](O)[C@H]2O)n1 | 84.9
* O=C1Nc2ccccc2/C1=C\NCCc1ccc(O)c(O)c1 | 107
* OCCN1CCN(CCCN2c3ccccc3Sc3ccc(Cl)cc32)CC1 | 105

###

tested on: Mono-Mac-6; assay: cell viability (% survival relative to DMSO control, bortezomib = 0%); higher = less cytotoxic; settings: 1 nM; 72 h
VALUE_KIND: cell viability (%)

* NC(=O)c1ncn([C@@H]2O[C@H](CO)[C@@H](O)[C@H]2O)n1 | 92.1
* O=C(O)c1cc2sccc2[nH]1 [4H-thieno[3,2-b]pyrrole-5-carboxylic acid] | 104
* Cc1c(-c2ccccc2)oc2c(C(=O)OCCN3CCCCC3)cccc2c1=O.Cl [Flavoxate] | 92.6
* Cc1coc2c1C(=O)C(=O)c1c-2ccc2c(C)cccc12 | 126
* Nc1ncnc2c1ncn2[C@@H]1O[C@H](CSCC[C@H](N)C(=O)O)[C@@H](O)[C@H]1O | 96.7
* CC(C(=O)O)C(=O)O [Methylmalonate] | 96.2
* Nc1ccn([C@@H]2O[C@H](CO)[C@@H](O)[C@@H]2O)c(=O)n1 | 95.1

###

test system: HL-60; assay: cell viability (% survival relative to DMSO control); higher = less cytotoxic; conditions: 1 µM; 72 h; co-treatment: pictilisib 100 nM
VALUE_KIND: cell viability (%)

* c1ccc2c(c1)OCC(=C1NCCN1)O2 | 95.1
* Cc1ccc(S(=O)(=O)NC2c3ccccc3Oc3ccccc32)cc1 | 92.2
* O=P(O)(O)C(O)(Cn1ccnc1)P(=O)(O)O | 108
* Cc1c2c(=O)n(-c3ccccc3Cl)[nH]c2cc(=O)n1Cc1ccccn1 | 95.2
* C=CCc1ccc2c(c1O)C(=O)c1ccccc1C2=O | 104
* Cl.OC[C@H]1NC[C@@H](O)[C@@H](O)[C@@H]1O [1-Deoxymannojirimycin hydrochloride] | 111
